experiment: protection of INS-1E cells from cytokine death, dose response, ATP luminescence, dry powder (AID 488844); details: INS-1E cytokine-induced death rescue, ATP luminescence, 48 h; at 23.5 µM (top of the series)
Please provide measured protection from cytokine death for the entries that follow.
Answers are plain numbers, in %.

{"columns": ["compound_structure_string", "protection from cytokine death, %"],
 "data": [
  ["C[C@@H]1CN([C@@H](C)CO)C(=O)c2cccc(NC(=O)Nc3cccc4ccccc34)c2O[C@H]1CN(C)C(=O)Nc1ccccc1", -1.63],
  ["COc1ccc(S(=O)(=O)N(C)C[C@@H]2Oc3c(NC(=O)C4CC4)cccc3C(=O)N([C@@H](C)CO)C[C@H]2C)cc1", 1.51],
  ["COc1ccc(S(=O)(=O)N(C)C[C@@H]2Oc3c(NC(=O)C4CCOCC4)cccc3C(=O)N([C@@H](C)CO)C[C@H]2C)cc1", 6.47],
  ["C[C@@H]1CN([C@@H](C)CO)C(=O)c2cccc(NC(=O)Nc3cccc4ccccc34)c2O[C@H]1CN(C)C(=O)Nc1ccc(C(F)(F)F)cc1", -33.2]
]}

Look up protection from cytokine death: "COc1ccc(S(=O)(=O)N(C)C[C@@H]2Oc3c(cccc3N(C)C)C(=O)N([C@@H](C)CO)C[C@H]2C)cc1"
-5.24
